# System: NCI-H322M lung
# testDescription: NCI-60 one-dose screen, 48 h (100 = growth as untreated, 0 = no growth, -100 = all killed)
# runConditions: 10 µM
About 83,000 compounds went through this panel and 20% of them were active in at least one assay; those are over-represented in the sample as a whole.
readoutLabel: growth (%)
Numeric answer only, unit % assumed.

Recorded growth (compound "O=C(O)CNS(=O)(=O)c1ccc(OCCOc2ccc(S(=O)(=O)NCC(=O)O)cc2)cc1" ): 97.4

Form field growth, entry CCCCCCCCCCCC(c1ccccc1)N(C)C (stereo not given) : 103

The compound identified as "COc1ccc(-c2nc(SCC(=O)c3ccc(Br)cc3)[nH]c(=O)c2C#N)cc1" registered its growth at 97.3

The compound listed as CCCCCN(CCCCC)C(C)C(O)c1ccc2cc(Cl)c3ccccc3c2c1 (stereo not given) shows growth equal to 103

So, CCCCOCC(=O)NC(NP(=O)(N(C)C)N(C)C)C(Cl)(Cl)Cl (stereo not given) ? Its growth was 127

====

# Test system: T-47D breast
# testDescription: NCI-60 one-dose screen, 48 h (100 = growth as untreated, 0 = no growth, -100 = all killed)
# runConditions: 10 µM
This is part of a sample that, as a whole, favours compounds with a hit. Of some 83,000 tested, about 20% had one in any assay.
Classify by growth. Ranges: lo = under 40%, mid = from 40% up to 90%, hi = 90% and over

State the class of the compound shown: "O=C(Nc1cccc(-c2nc3ccccc3[nH]2)c1)c1cccc(NC(=O)c2ccco2)c1" mid

For this compound, which bin applies? "Nc1ccccc1NC(=O)CCCCCCC(=O)Nc1ccc2c(c1)/C(=C/c1ccc[nH]1)C(=O)N2" lo

Please indicate the class for "O=c1cc(CSc2nnc(-c3ccccc3)n2-c2ccc(F)cc2)c2ccc3ccccc3c2o1" based on its growth. mid

Class (by measured growth) for "C(=C\c1nc2ccccc2s1)/c1ccc(N2CCOCC2)s1" lo

Category of "COc1ccc(-c2nc(SCC(=O)c3ccc(Br)cc3)[nH]c(=O)c2C#N)cc1" : hi

Which growth category applies to "COC(=O)[C@]12CC[C@@H](C)[C@H](C)[C@@H]1C1=CC[C@@H]3[C@@]4(C)CC(=O)[C@H](O)[C@@]5(C)COC(=C45)C[C@@]3(C)[C@]1(C)CC2" here? lo

Assign a bin to "CCCCC(CC#N)(CCC)CCC" hi

Lab log: CCN(CC)CC(O)CNc1ccnc2cc(Cl)c(Cl)cc12 (configuration not stated) — assign growth category hi

# bin label for "O=C(Nc1cccc(F)c1)Nc1cccc(Cl)c1" mid

In plain terms, what class is "N#C/C(=C\N1C(=O)/C(=C/c2cccc([N+](=O)[O-])c2)SC1=S)c1nc2ccccc2s1" ? mid

Form field 'band' for c1ccc(CC(NCCNC(Cc2ccccc2)c2ccccc2)c2ccccc2)cc1 (configuration not stated) lo

Determine which band this compound sits in: "O=C1/C(=C/c2ccc(O)cc2)CSc2ccc(Cl)cc21" mid

Which category fits this record: "Cc1ccc(/C=C2\CN(Cc3cn(CCNc4ccnc5cc(Cl)ccc45)nn3)C/C(=C\c3ccc(C)cc3)C2=O)cc1" lo

Which category does the recorded growth put "Cc1cn(C(=O)/C(Cl)=C(/Cl)C(=O)O)c2ccccc12" in? hi

Category of "O=C(N/N=C/c1ccccc1O)c1ccccc1" : lo

Looking at "CN(C)Cc1cccs1" , which class would you pick? mid

Given "CCOC(=O)c1c(C(F)(F)F)n([O-])c2ccc(OC)cc2[n+]1=O" , name the class its growth places it in. lo

Assign a category based on measured growth for "Cc1ccc(/C(CS(=O)(=O)c2ccc(C)cc2)=N\O)cc1" and give only the class name. hi

Hey, which category is "CCCc1c(C)nc2scc(-c3ccc(Cl)cc3)n2c1=O" in, do you know? mid

Could you tell me which band CC(C)C(C)C(N)C(=O)O (configuration not stated) belongs to? hi

Each compound maps to one class by growth. Which class for CC1=CC2OC34COC3CC(OC(=O)C(F)(F)F)C4(C)C2(C)CC1 (configuration not stated) ? hi

For the record "O=C(O)CCCCSCCCCC(=O)O" , report the class its growth corresponds to. mid

Just checking, what class would you give "CC(=O)n1nc(C(=O)OC(C)(C)C)c2cc(F)c(F)cc21" here? hi

Which class holds CCCC(C)c1ccc(OCCCCCCN2CCNCC2)cc1 (configuration not stated) ? lo

Which class is correct for the following compound? "COC(=O)[C@]12CC[C@@H](C)[C@H](C)[C@@H]1C1=CC[C@@H]3[C@@]4(C)C/C(=N\O)[C@H](O)[C@@]5(C)COC(=C45)C[C@@]3(C)[C@]1(C)CC2" lo

For this compound, which bin applies? "COc1cc(/C=C/C(=O)c2cc(-c3ccccc3)ccc2O)cc(OC)c1OC" mid

Hi there! Could you help me figure out the category for Nc1nc2c(nnn2C2CC(O)C(CO)O2)c(=O)[nH]1 (configuration not stated) please? mid

Please indicate the class for "Cc1nnc2c3nnc(-c4ccc(Cl)cc4)n3c3ccccc3n12" based on its growth. hi

Classify this compound: "COc1cc(-c2cc(-c3cc(OC)c(OC)c(OC)c3)nc3nc(N)[nH]c(=O)c23)ccc1Oc1ccnc2cc(Cl)ccc12" lo

# bin label for "O=C(/C=C/c1nnc2n(Cc3ccccc3)c(=O)c3c4c(sc3n12)CCCC4)c1ccccc1" lo

Exam item: assign COc1ccc(C2C=C(c3ccc(Cl)c(Cl)c3)N=C3SC(C)=CN32)cc1OC (configuration not stated) to the correct category. mid

Which growth band matches "C[C@]12CC[C@H]3[C@@H](CC=C4C[C@@H](O)CC[C@@]43C)[C@@H]1CC[C@@H]2C(=O)C/C=N/O" ? mid

Band for "COc1cc(CSc2nc3ccc(Cl)cc3c(=O)n2-c2ccccc2)cc(OC)c1OC" ? mid

Which class holds "COc1cc(OC)cc(-c2n/c(=C\c3c(O)[nH]c4ccc(OC)cc34)cc3c2=Nc2ccccc2-3)c1" ? hi

Which category fits this record: "CCCCCCCOc1cccc(/C=C2/C(=O)N=C3SCCCN32)c1" lo

Dear colleague, I would appreciate it if you could identify the bin for "Cc1ccc2nc3[nH]c(=O)[nH]c(=O)c3c(N)c2c1" and reply at your convenience. mid

Hey, which category is "COc1ccc(S(=O)(=O)Nc2cc(/C=C\c3cc(OC)c(OC)c(OC)c3)ccc2OC)cc1" in, do you know? mid

Which category fits this record: "COCCOC(=O)NC(=O)Nc1ccc(C(=O)c2ccc(Cl)cc2)cc1" lo
